meta.source: ChEMBL document CHEMBL5137030

Test system: Human alphaherpesvirus 2
Assay: Antiviral activity against HSV-2 infected in African green monkey Vero cells assessed as inhibition of viral replication by measuring log suppression of virus-induced cytopathic effect at 1 uM incubated for 1 hr followed by washing with PBS and subsequent treatment with compound for 24 hrs by plaque assay
Assay type: functional
Details: time 25 hrs
EXPERIMENTAL_READOUT: log(activity)

Cc1cc(Cc2ccc3ccccc3c2)n(O)c(=O)c1
1.34
COc1cccc(Cc2cc(C)cc(=O)n2O)c1
2.15
O=c1cc(Cc2ccccc2)cc(Cc2ccccc2)n1O
0.29
O=c1ccc(-c2ccccc2)cn1O [1-HYDROXY-5-PHENYLPYRIDIN-2(1H)-ONE]
-0.03

Turning now to a further molecule:
Problem: Consider the molecule shown here: Cc1cc(C2CCCC2)n(O)c(=O)c1 What is its recorded log(activity)?
Solution: 0.37

---

Assay: Half life in human liver microsomes at 2 uM in presence of NADPH by LC/MS/MS analysis
Format: ADME, Microsome
Quick list: t1/2 per entry.

Some compounds with recorded t1/2:
O=c1cc(-c2ccccc2)cc(C2CCCCC2)n1O
< 5 min
Cc1cc(Cc2ccc(-c3ccccc3)cc2)n(O)c(=O)c1
< 5 min
Cc1cc(C2CCCCCC2)n(O)c(=O)c1
< 5 min

Problem: Consider the compound shown here: COc1cccc(Cc2cc(C)cc(=O)n2O)c1 What is its recorded t1/2?
Solution: 19 min

---

Quick list: log(activity) per entry.
System: Human alphaherpesvirus 2
Assay: Antiviral activity against HSV-2 infected in African green monkey Vero cells assessed as inhibition of viral replication by measuring log suppression of virus-induced cytopathic effect at 1 uM incubated for 1 hr followed by washing with PBS and subsequent treatment with compound for 24 hrs by plaque assay
Type: functional
Settings: time 25 hrs
# print the numeric value only

Some molecules with recorded log(activity):
O=c1cc(-c2ccccc2)cc(Cc2ccccc2)n1O
2.72
COc1ccc(Cc2cc(C)cc(=O)n2O)cc1
1.23

Problem: Kindly state the measured log(activity) obtained for O=c1c2ccccc2cc(C2CCCCC2)n1O with Human alphaherpesvirus 2.
Solution: 1.01
